Recorded half-life at 1 μM for the following molecules
Test: Human plasma stability test
Assay type: in vitro ADME
Settings: 37 °C, up to 24 h, read-out: t1/2 (Human Plasma) (converted)

MOLECULE | half-life at 1 μM
COc1ccc2c3c(c4cc(OC)c(OC)cc4c2c1)C[C@H]1CCC[N+]1(Cc1c([N+](=O)[O-])ncn1C)C3.[Br-] (stereo partly drawn) | 145 h
COc1cc2c3c(c4cc(OC)c(OC)cc4c2cc1OC)C[N+]1(Cc2c([N+](=O)[O-])ncn2C)CCC[C@H]1C3.[Br-] (stereo partly drawn) | 63.3 h
CC(C)[N+](C)(CCOC(=O)C1c2ccccc2Oc2ccccc21)C(C)C | < 3 h

---

Experiment: BBB-Parallel Artificial Membrane Permeability Assay (BBB-PAMPA)
Format: in vitro ADME
Conditions: mean ± SE
ENDPOINT: Permeability (Papp) (Log [10^−6 cm/s])

MOLECULE | SIGN QUALIFIER | RECORDED RESULT
COc1ccc2c3c(c4cc(OC)c(OC)cc4c2c1)C[C@H]1CCCN1C3 [(R)-Antofine, (R)-antofine] | = | −5.6
CN(C)CCCN1c2ccccc2Sc2ccc(Cl)cc21 | = | −5.4
CN1CCN(C2=Nc3cc(Cl)ccc3Nc3ccccc32)CC1 | = | −5.1
COc1cc2c3c(c4cc(OC)c(OC)cc4c2cc1OC)C[N+]1(Cc2c([N+](=O)[O-])ncn2C)CCC[C@H]1C3.[Br-] (stereo partly shown) | < | −7
COc1cc2c3c(c4cc(OC)c(OC)cc4c2cc1OC)CN1CCC[C@H]1C3 [(S)-Tylophorine] | = | −5.4
COc1ccc2c3c(c4cc(OC)c(OC)cc4c2c1)C[C@H]1CCC[N+]1(Cc1c([N+](=O)[O-])ncn1C)C3.[Br-] (stereo partly shown) | < | −7
CNC(=C[N+](=O)[O-])NCCSCc1ccc(CN(C)C)o1 | < | −7

---

Experiment: Solubility in PBS (pH 7.4)
Type: physicochemical
Settings: aqueous buffer, mean ± SE
Procedure: Water solubility, logD, and PAMPA-BBB were evaluated using the protocols we previously described.
Recorded log10(solubility) for the following molecules
ENDPOINT: log10(solubility) (log10 of the value in µM)

MOLECULE | log10(solubility)
COc1ccc2c3c(c4cc(OC)c(OC)cc4c2c1)C[C@H]1CCCN1C3 [(R)-Antofine, (R)-antofine] | 1.43
Cc1nccn1CC1CCc2c(c3ccccc3n2C)C1=O (centres unmarked) [Ondansetron] | 1.98
COc1ccc2c3c(c4cc(OC)c(OC)cc4c2c1)C[C@H]1CCC[N+]1(Cc1c([N+](=O)[O-])ncn1C)C3.[Br-] (some centres unmarked) [Compound 5a] | 2.19
COc1cc2c3c(c4cc(OC)c(OC)cc4c2cc1OC)C[N+]1(Cc2c([N+](=O)[O-])ncn2C)CCC[C@H]1C3.[Br-] (some centres unmarked) [Compound 5b] | 2.21
COc1cc2c3c(c4cc(OC)c(OC)cc4c2cc1OC)CN1CCC[C@H]1C3 [(S)-Tylophorine] | 0.30

---

Test system: SW480
Assay: Cytotoxicity (MTT) under normoxia, SW480
Type: cell-based
Settings: Homo sapiens, SW480; normoxia; read-out: IC50 SW480
pIC50: −log10 of the molar value.
ENDPOINT: pIC50

COMPOUND | SUBJECT OF TEST | RECORDED RESULT
COc1ccc2c3c(c4cc(OC)c(OC)cc4c2c1)C[C@H]1CCCN1C3 [(R)-Antofine, (R)-antofine] | SW480 | 8.05
